- ASSAYED_TARGET: T1, MAGE-A1 peptide on HLA-A*02:01 (human)
- T1 peptide: KVLEYVIKV
- EXPERIMENT: JKR9 reporter + peptide-loaded T2, 16 h; full-length, on cells
QUANTITY: EC50 of peptide

BINDER: ht27M1362 (TCR, V domains shown) Valpha: GEDVEQSLFLSVREGDSSVINCTYTDSSSTYLYWYKQEPGAGLQLLTYIFIFQYMKQDQRLTVLLNKKDKHLSLRIADTQTGDSAIYFCAGSGGGTDKLIFGTGTRLQVFP Vbeta: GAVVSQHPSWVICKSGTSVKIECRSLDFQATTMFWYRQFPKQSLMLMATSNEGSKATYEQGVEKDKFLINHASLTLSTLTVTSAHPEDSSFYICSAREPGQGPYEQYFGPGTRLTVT
OBSERVED_VALUE: 39.9 nM
--
BINDER: ht27M1243 (TCR, V domains shown) Valpha: GEDVEQSLFLSVREGDSSVINCTYTDSSLTYLYWYKQEPGAGLQLLTYIFSNMDMKQDQRLTVLLNKKDKHLSLRIADTQTGDSAIYFCAGSGGGTDKLIFGTGTRLQVFP Vbeta: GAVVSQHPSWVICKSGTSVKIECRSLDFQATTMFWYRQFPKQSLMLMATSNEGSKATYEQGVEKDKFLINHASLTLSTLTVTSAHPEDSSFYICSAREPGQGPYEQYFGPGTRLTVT
OBSERVED_VALUE: 298 nM
--
BINDER: ht27M1557 (TCR, V domains shown) Valpha: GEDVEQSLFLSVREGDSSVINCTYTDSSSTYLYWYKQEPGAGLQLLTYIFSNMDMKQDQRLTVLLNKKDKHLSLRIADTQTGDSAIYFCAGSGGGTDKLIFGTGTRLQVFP Vbeta: GAVVSQHPSWVICKSGTSVKIECRSLDFQATTMFWYRQFPKQSLMLMATSNEGSKATYEQGVEKDKFLINHASLTLSTLTVTSAHPEDSSFYICSAREPGQEHLIQYFGPGTRLTVT
OBSERVED_VALUE: 14.9 nM
--
BINDER: ht27M1006 (TCR, V domains shown) Valpha: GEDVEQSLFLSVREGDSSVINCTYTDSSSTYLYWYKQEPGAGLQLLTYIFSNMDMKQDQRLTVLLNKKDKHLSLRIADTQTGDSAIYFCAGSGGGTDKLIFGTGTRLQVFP Vbeta: GAVVSQHPSWVICKSGTSVKIECRSLDFQATTMFWYRQFPKQSLMLMATSNEGSKATYEQGVEKDKFLINHASLTLSTLTVTSAHPEDSSFYICSAREPGQGPWEQYFGPGTRLTVT
OBSERVED_VALUE: 37.4 nM
--
BINDER: ht27M1414 (TCR, V domains shown) Valpha: GEDVEQSLFLSVREGDSSVINCTYTDSSSTYLYWYKQEPGAGLQLLTYTWPHMDMKQDQRLTVLLNKKDKHLSLRIADTQTGDSAIYFCAGSGGGTDKLIFGTGTRLQVFP Vbeta: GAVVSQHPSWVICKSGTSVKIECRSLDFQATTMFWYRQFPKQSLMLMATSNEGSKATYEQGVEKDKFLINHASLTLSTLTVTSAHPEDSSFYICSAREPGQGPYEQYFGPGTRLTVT
OBSERVED_VALUE: 22.5 nM
--
BINDER: ht27M1013 (TCR, V domains shown) Valpha: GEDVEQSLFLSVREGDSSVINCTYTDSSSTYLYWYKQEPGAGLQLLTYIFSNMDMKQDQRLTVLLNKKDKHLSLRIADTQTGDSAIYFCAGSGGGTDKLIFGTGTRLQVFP Vbeta: GAVVSQHPSWVICKSGTSVKIECRSLDFQATTMFWYRQFPKQSLMLMATSNEGSKATYEQGVEKDKFLINHASLTLSTLTVTSAHPEDSSFYICSAREPGSGPFEQYFGPGTRLTVT
OBSERVED_VALUE: 19.8 nM
--
BINDER: ht27M1290 (TCR, V domains shown) Valpha: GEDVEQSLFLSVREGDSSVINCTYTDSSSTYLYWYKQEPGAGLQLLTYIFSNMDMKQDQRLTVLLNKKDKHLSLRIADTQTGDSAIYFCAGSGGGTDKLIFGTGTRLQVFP Vbeta: GAVVSQHPSWVICKSGTSVKIECRSLDFQATTMFWYRQFPKQSLMLMATSNEGSKATYEQGVEKDKFLINHASLTLSTLTVTSAHPEDSSFYICSARVNDGTYEQYFGPGTRLTVT
OBSERVED_VALUE: 32.4 nM
